ASSAYED SYSTEM: hemagglutinin (HA) of influenza A/Vietnam/1194/04 (H5N1) (influenza A virus A/Vietnam/1194/04 (H5N1))
ASSAY NOTES: cell-based or functional assay
Entries and their measured log10 VNA IC50 follow.
// units: nM (pre-log); metric: VNA IC50; scale: log10

// known answers, use as guide
SD3021 (VHH) VHH: EVQLVESGGGVVQPGGSLRLSCAASISIFDIYAMDWYRQAPGKQRELVAVSFRDGSTYYADSVKGRFTISRDNSKNTLYLQMNSLRPEDTAVYLCHVSLYRDPLGVAGGLGVYWGKGALVTVSS : 1.18
SD3019 (VHH) VHH: EVQLVESGGGVVQPGGSLRLSCAASISIFDIYAMHWYRQAPGKQRELVSVSFRDGSTYYADSVKGRFTISRDNSKNTLYLQMNSLRAEDTAVYLCHVSLYRDPLGVAGGMGVYWGKGALVTVSS : 0.90
SD3080 (VHH) VHH: EVQLVESGGGVVQPGGSLRLSCAASISIFDIYAMDWYRQAPGKQRELVAVSFRDGSTYYADSVKGRFTISRDNSKNTLYLQMNSLRPEDTAVYYCHVSLYRDPLGVAGGLGVYWGQGTLVTVSS : 1.20
SD3033 (VHH) VHH: EVQLVESGGGLVQPGGSLRLSCAVSISIFDIYAMDWYRQAPGKQRDLVATSFRDGSTNYADSVKGRFTISRDNAKNTLYLQMNSLKPEDTAVYLCHVSLYRDPLGVAGGFGVYWGKGALVTVSS : 2.50
SD3018 (VHH) VHH: EVQLVESGGGVVQPGGSLRLSCAASISIFDIYAMHWYRQAPGKQRELVAVSFRDGSTYYADSVKGRFTISRDNSKNTLYLQMNSLRAEDTAVYLCHVSLYRDPLGVAGGMGVYWGKGALVTVSS : 0.90

Request: Recorded log10 VNA IC50 for SD3020 (VHH) VHH: EVQLVESGGGVVQPGGSLRLSCAASISIFDIYAMHWYRQAPGKQRELVAVSFRDGSTYYADSVKGRFTISRDNSKNTLYLQMNSLRPEDTAVYLCHVSLYRDPLGVAGGMGVYWGKGALVTVSS , please?
Result: 1.18

Request: I would be grateful if you could share the reported log10 VNA IC50 for SD3014 (VHH) VHH: EVQLVESGGGVVQPGGSLRLSCAASISIFDIYAMDWYRQAPGKQRELVAVSFRDGSTYYADSVKGRFTISRDNSKNTLYLQMNSLRAEDTAVYLCHVSLYRDPLGVAGGMGVYWGKGALVTVSS .
Result: 1.04

Request: So what does the record say about log10 VNA IC50 for SD3030 (VHH) VHH: EVQLVESGGGLVQPGGSLRLSCAVSISIFDIYAMDWYRQAPGKQRDLVATSFRDGSTNYADSVKGRFTISRDNAKNTLYLQMNSLKPEDTAVYLCHVSLYRDPLGVAGGIGVYWGKGALVTVSS ?
Result: 1.30

Request: Name the recorded log10 VNA IC50 for SD3079 (VHH) VHH: EVQLVESGGGVVQPGGSLRLSCAASISIFDIYAMDWYRQAPGKQRELVAVSFRDGSTYYADSVKGRFTISRDNSKNTLYLQMNSLRAEDTAVYYCHVSLYRDPLGVAGGLGVYWGQGTLVTVSS .
Result: 1.20

Request: # get_value(readout='log10 VNA IC50', item= SD3029 (VHH) VHH: EVQLVESGGGLVQPGGSLRLSCAVSISIFDIYAMDWYRQAPGKQRDLVATSFRDGSTNYADSVKGRFTISRDNAKNTLYLQMNSLKPEDTAVYLCHVSLYRDPLGVAGGLGVYWGKGALVTVSS )
Result: 1.30

Request: Looking for the measured log10 VNA IC50 of SD3022 (VHH) VHH: EVQLVESGGGVVQPGGSLRLSCAASISIFDIYAMDWYRQAPGKQRELVAVSFRDGSTYYADSVKGRFTISRDNSKNTLYLQMNSLRPEDTAVYLCHVSLYRDPLGVAGGIGVYWGKGALVTVSS , can you help?
Result: 1.30

Request: Value lookup for log10 VNA IC50; key = SD3078 (VHH) VHH: EVQLVESGGGVVQPGGSLRLSCAASISIFDIYAMDWYRQAPGKQRELVSVSFRDGSTYYADSVKGRFTISRDNSKNTLYLQMNSLRAEDTAVYYCHVSLYRDPLGVAGGLGVYWGQGTLVTVSS
Result: 1.30

Request: Using the record for SD3089 (VHH) VHH: EVQLVESGGGVVQPGGSLRLSCAASISIFDIYAMHWYRQAPGKQRELVSVSFRDGSTYYADSVKGRFTISRDNSKNTLYLQMNSLRAEDTAVYYCHVSLYRDPLGVAGGLGVYWGQGTLVTVSS , report its log10 VNA IC50.
Result: 1.30

Request: Give its log10 VNA IC50 value. Item: SD3031 (VHH) VHH: EVQLVESGGGLVQPGGSLRLSCAVSISIFDIYAMDWYRQAPGKQRDLVATSFRDGSTNYADSVKGRFTISRDNAKNTLYLQMNSLKPEDTAVYLCHVSLYRDPLGVAGGVGVYWGKGALVTVSS
Result: 1.71

Request: Would you mind telling me what log10 VNA IC50 value was observed for SD3016 (VHH) VHH: EVQLVESGGGVVQPGGSLRLSCAASISIFDIYAMDWYRQAPGKQRELVAVSFRDGSTYYADSVKGRFTISRDNSKNTLYLQMNSLRPEDTAVYLCHVSLYRDPLGVAGGMGVYWGKGALVTVSS ?
Result: 0.90
